Molecular target: OTUB2 (OTUB2A) (Homo sapiens)
Construct: full length residues 1-234, E. coli BL21(DE3)-R3, His tag removed by TEV, construct 27312 Da
Sequence (Q96DC9 1-234): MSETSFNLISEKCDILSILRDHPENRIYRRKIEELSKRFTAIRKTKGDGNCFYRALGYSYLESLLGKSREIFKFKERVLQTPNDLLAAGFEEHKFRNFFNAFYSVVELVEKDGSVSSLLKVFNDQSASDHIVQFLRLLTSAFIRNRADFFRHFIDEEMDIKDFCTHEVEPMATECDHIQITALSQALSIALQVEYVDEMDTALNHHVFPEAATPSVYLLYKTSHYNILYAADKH
Parameters: Intact protein LC/MS covalent labelling, fragments in pools of five, 200 uM each, 4 °C
Conditions: 24 h, 4 °C, pool of five; 200 µM; covalent
I'd appreciate it if you could supply OTUB2 values for the items below.
Enter the number alone.

**Query** Suppose we examine the molecule CNC(=O)C1CN(C(=O)CCl)c2ccccc2O1 (stereo not shown) [PCM-0102221] ; what OTUB2 value has been reported?
**Result** 0.15

**Query** Looking for the measured OTUB2 of N#Cc1cccc(NC(=O)CCl)c1 [PCM-0103033] , can you help?
**Result** 0.23

**Query** Recorded OTUB2 of Cl.O=C(CCl)Nc1cccnc1 [PCM-0102653] , please.
**Result** 0

**Query** Fill in: OTUB2 of CN(C)C(=O)c1ccc(NC(=O)CCl)cc1 [PCM-0102877] is ___
**Result** 0

**Query** Which OTUB2 reading was recorded for the molecule O=C(CCl)N1CCSc2ccccc21 [PCM-0102415] ?
**Result** 0.16

**Query** # query: OTUB2 of entry O=C(CCl)NCc1cccc(Cl)c1 [PCM-0102174]
**Result** 0.25

**Query** May I ask what OTUB2 has been recorded for Cc1c(C#N)c(NC(=O)CCl)n(C2CCCC2)c1C [PCM-0102183] ?
**Result** 0

**Query** May I ask what OTUB2 has been recorded for O=C(CCl)Nc1ccc(Br)cn1 [PCM-0102227] ?
**Result** 0

**Query** I would be grateful if you could share the reported OTUB2 for Cc1ccc(NC(=O)CCl)cc1S(N)(=O)=O [PCM-0102177] .
**Result** 0.27

**Query** For the molecule shown here, COc1ccc(NC(=O)CCl)cc1 [PCM-0102156] , give the reported OTUB2.
**Result** 0.52

**Query** # OTUB2 lookup, item COc1ccc(Cl)cc1C(=O)NNC(=O)CCl [PCM-0102763]
**Result** 0.64

**Query** Reported OTUB2, molecule O=C(CCl)N1CCC(C(=O)N2CCCCCC2)CC1 [PCM-0102781] : ____
**Result** 0

**Query** # OTUB2 lookup, item CN(CC12CC3CC(CC(C3)C1)C2)C(=O)CCl [PCM-0102942]
**Result** 0.1

**Query** Fill blank: measured OTUB2 of the molecule CC(C)(C)OC(=O)N1CCCC(CNC(=O)CCl)C1 (stereo not shown) [PCM-0102923] is ____.
**Result** 0.2

**Query** Requested read-out: OTUB2. Entry: CCOC(=O)C1CCCCN1C(=O)CCl (stereo not shown) [PCM-0102937]
**Result** 0.13

**Query** Query: OTUB2; subject: C=CC(=O)Nc1sc2c(c1C#N)CCCC2 [PCM-0102455]
**Result** 0

**Query** // query OTUB2 value for entry C=CC(=O)N1CCC(C(=O)Nc2cc(C)on2)CC1 [PCM-0102477]
**Result** 0

**Query** Recorded OTUB2 for O=C(CCl)N1CCC(c2nc3ccccc3s2)CC1 [PCM-0103068] , please?
**Result** 0

**Query** Quick one: OTUB2 for CCc1ccccc1NC(=O)CCl [PCM-0102369] ?
**Result** 0

**Query** Can you look up the measured OTUB2 of CN(Cc1nc2ccccc2s1)C(=O)CCl [PCM-0102988] for me?
**Result** 0

**Query** Reported OTUB2, molecule O=C(CCl)Nc1nnc(CC(F)(F)F)o1 [PCM-0102779] : ____
**Result** 0

**Query** Could you share which OTUB2 value was measured for O=C(CCl)N1CCN(c2ncc(Cl)cc2Cl)CC1 [PCM-0103022] ?
**Result** 0

**Query** // lookup OTUB2 for O=C(CCl)Nc1ccccc1C(=O)O [PCM-0102307]
**Result** 0

**Query** Entry under review: CN(Cc1ccc(Cl)cc1)C(=O)CCl [PCM-0102344] . Reported OTUB2?
**Result** 0

**Query** Dear colleague, I am looking for the recorded OTUB2 of the following molecule: CC1CCN(C(=O)CCl)c2ccccc2S1 (stereo not shown) [PCM-0102216]
**Result** 0

**Query** Would you kindly share the measured OTUB2 for Cc1cc(N2CCN(C(=O)CCl)CC2)nc(C(C)C)n1 [PCM-0102638] ?
**Result** 0

**Query** Which OTUB2 reading was recorded for the molecule C=CC(=O)N1CCC(n2cccn2)CC1 [PCM-0102555] ?
**Result** 0

**Query** Please look up its OTUB2: Cc1cccc(NC(=O)CCl)c1 [PCM-0102116]
**Result** 0.11

**Query** May I ask what OTUB2 has been recorded for O=C(CCl)Nc1ccccc1N1CCCCC1 [PCM-0102860] ?
**Result** 0

**Query** Fill in the blank: the reported OTUB2 of C=CC(=O)N1CCN(C2CCCN(C3CCOCC3)C2=O)CC1 (stereo not shown) [PCM-0102886] is ____.
**Result** 0

**Query** Given CC(=O)NNC(=O)CCl [PCM-0102310] , state its recorded OTUB2.
**Result** 0.18

**Query** # lookup: OTUB2 of CN(CC(F)(F)F)C(=O)CCl [PCM-0102674]
**Result** 0

**Query** Would you mind telling me what OTUB2 value was observed for Cc1cc(C)c(NC(=O)CCl)c(C)c1 [PCM-0102352] ?
**Result** 0

**Query** Return reported OTUB2; argument: O=C(CCl)NCC#Cc1ccccc1 [PCM-0103007]
**Result** 0.6

**Query** State the recorded OTUB2 for this entry: O=C(CCl)N1CCSC1c1ccccc1F (stereo not shown) [PCM-0102293]
**Result** 0.12

**Query** Which OTUB2 is listed for O=C(CCl)Nc1ccc2c(c1)NC(=O)CO2 [PCM-0102890] ?
**Result** 0.32

**Query** Look at this molecule and give its reported OTUB2. C=CC(=O)N1CCCC(c2cnn(C)c2)C1 (stereo not shown) [PCM-0102641]
**Result** 0

**Query** Any idea what OTUB2 was measured for N#CSc1ccc(NC(=O)CCl)c(F)c1 [PCM-0102548] ?
**Result** 0.09

**Query** Need OTUB2, item O=C(CCl)Nc1ccccc1 [PCM-0102658]
**Result** 0

**Query** Could you tell me which OTUB2 is on file for C=CC(=O)N1CCN(c2ccnc(-c3ccccc3)n2)CC1 [PCM-0102515] ?
**Result** 0
